Tested on: SNB-75 CNS
Test: NCI-60 one-dose screen, 48 h (100 = growth as untreated, 0 = no growth, -100 = all killed)
Conditions: 10 µM
This is part of a sample that, as a whole, favours compounds with a hit. Of some 83,000 tested, about 20% had one in any assay.
attribute-measured: growth (%)
Answer format: numeric, % implied, no suffix.

molecule	growth, %
O=c1cc2oc3cc(O)c(O)cc3c(-c3ccccc3O)c-2cc1O	62.9
Cc1cc(C(C)(C)C)cc(C)c1Br	94.6
CC(CC(=O)c1ccccc1)c1ccccc1 (stereo not drawn)	104
Cc1cc(C(O)(c2ccc(Nc3ccccc3)cc2)c2ccc(Nc3ccc(S(=O)(=O)O)cc3)cc2)ccc1N (stereo not drawn)	16.8
COc1ccc(C(C)C=O)cc1 (stereo not drawn)	88.4

Query :: Dear colleague, I am looking for the recorded growth of the following molecule: C#CC(C)(O)c1ccc(Cl)cc1 (stereo not drawn)
Result :: 98.8

Query :: Can you check `CCOC(=O)CSc1c([N+](=O)[O-])ncn1C` next?
Result :: 98.4

Query :: Can you check `O=[N+]([O-])c1ccc(CO)cc1` next?
Result :: 108
